# Measured target: TDP-43 (Homo sapiens, UniProt Q13148 1-414)
# Sequence (Q13148 whole entry): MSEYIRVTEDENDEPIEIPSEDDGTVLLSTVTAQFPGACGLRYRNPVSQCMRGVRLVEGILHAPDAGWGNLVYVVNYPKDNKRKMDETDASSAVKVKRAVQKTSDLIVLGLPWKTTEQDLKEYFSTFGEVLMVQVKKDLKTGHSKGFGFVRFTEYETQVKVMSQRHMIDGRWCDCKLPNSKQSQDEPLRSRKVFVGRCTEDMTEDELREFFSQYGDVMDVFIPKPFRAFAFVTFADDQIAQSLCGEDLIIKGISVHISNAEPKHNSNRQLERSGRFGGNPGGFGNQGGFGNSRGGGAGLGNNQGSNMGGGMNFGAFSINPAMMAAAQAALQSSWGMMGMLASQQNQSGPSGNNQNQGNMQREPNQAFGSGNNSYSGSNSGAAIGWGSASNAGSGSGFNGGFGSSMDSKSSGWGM
# Procedure text: RNA Bind-n-Seq with designed 260-mer pool; 25 mM Tris-HCl, 150 mM KCl, 3 mM MgCl2, BSA (printed 500 mg/mL), 20 units/mL SUPERase IN; pH not stated; 500 nM RNA pool, 1 h, 4 C; TDP-43 5, 50, 500 nM; high values mean tight binding
# Assay context: protein: recombinant; tags: SBP (GST cleaved off with PreScission; pGEX-GST-SBP)
Over roughly 9,900 sequences, “r (bound/input frequency ratio)” has its median near 0.7; the highest 2% begin near 6.5. The list comes from a sample in which the highest values are over-represented; it also holds close analogues and randomly drawn sequences.
Measurement kind: binding signal

Data request: // query binding signal value for entry ENSMUSG00000032194.202|Kank2|53:57 (ssRNA) RNA: GGGAGUUCUACAGUCCGACGAUCGCUUCGAUAUCCGCAUGCUAGACAGGCUGCACCUUUCUCUAACUGGGGUUCCUUUCUGGCCCCAGGAUCUCACACACGUUCGUGGGGGGAUUUUGUUGUUGUUUCUUUGUUUCUUUUCUUCAUAAAGAAGAAAAAGGAAACAACUUCUAGAUGUGCCUUGCGAUAGGGAGGACUUUGUCCUCUCAAGUCUCCCUGUCGUAUCCAGAUCACAGCUGAACCCACUGGGCCUUGGCGCCAAACCUCAGCAGGGCAGCAUUGAGACUCAUGGACUAAAGGAAAGCUCUUGCGGUCGCACUAGUGUGGAAUUCUCGGGUGUCAAGG
Data returned: 0.269 R (bound/input frequency ratio)

Data request: // query binding signal value for entry ENSMUSG00000028439.189|Fam219a (ssRNA) RNA: GGGAGUUCUACAGUCCGACGAUCGCUUCGAUAUCCGCAUGCUAUGUGUGUGUGUUGUACCCGAGUGUGUGUUGAGCCUAUCUGUCCAGGGAACCAGAUUGGUGUCCGAGAUGAGGAAAUGGCUGUGGCCUGGGAAAUCAGUGAGAGGCCGCUUGGGAAUGAGAAUGCAGUGGACUGAAAGCACAGCCUGGCCAUCUGGAACCUGGGUUCUGGUCCCAGCCUCGGCAUUCUCCCUGAGCUCCUAAGCAAUUCCCAGGCUUCUCUAGGGCUUCAGUUCUCACAACUGGAAAAUAAAGAGUAGCUGCUCUUGCGGUCGCACUAGUGUGGAAUUCUCGGGUGUCAAGG
Data returned: 1.86 R (bound/input frequency ratio)

Data request: // query binding signal value for entry ENSMUSG00000028439.187|Fam219a (ssRNA) RNA: GGGAGUUCUACAGUCCGACGAUCGCUUCGAUAUCCGCAUGCUAUGUGCGUGUGUGUGUGUGUGUGUUGUACCCGAGUGUGUGUUGAGCCUAUCUGUCCAGGGAACCAGAUUGGUGUCCGAGAUGAGGAAAUGGCUGUGGCCUGGGAAAUCAGUGAGAGGCCGCUUGGGAAUGAGAAUGCAGUGGACUGAAAGCACAGCCUGGCCAUCUGGAACCUGGGUUCUGGUCCCAGCCUCGGCAUUCUCCCUGAGCUCCUAAGCAAUUCCCAGGCUUCUCUAGGGCUUCAGUUCUCACAACUGGAAAAUCUCUUGCGGUCGCACUAGUGUGGAAUUCUCGGGUGUCAAGG
Data returned: 6.68 R (bound/input frequency ratio)

Data request: // query binding signal value for entry ENSMUSG00000028439.185|Fam219a|1:16;18:35;45:52 (ssRNA) RNA: GGGAGUUCUACAGUCCGACGAUCGCUUCGAUAUCCGCAUGCUAACACACAUACACACACCCACACACACACACACACAUGUACCCGACACACACAUGAGCCUAUCUGUCCAGGGAACCAGAUUGGUGUCCGAGAUGAGGAAAUGGCUGUGGCCUGGGAAAUCAGUGAGAGGCCGCUUGGGAAUGAGAAUGCAGUGGACUGAAAGCACAGCCUGGCCAUCUGGAACCUGGGUUCUGGUCCCAGCCUCGGCAUUCUCCCUGAGCUCCUAAGCAAUUCCCAGGCUUCUCUAGGGCUUCAGUUCUCACUCUUGCGGUCGCACUAGUGUGGAAUUCUCGGGUGUCAAGG
Data returned: 2.5 R (bound/input frequency ratio)

Data request: // query binding signal value for entry ENSMUSG00000061578.741|Ksr2 (ssRNA) RNA: GGGAGUUCUACAGUCCGACGAUCGCUUCGAUAUCCGCAUGCUAUUUAAAUACCUGCUGCAGGCCUCCCAUCUCUGGCUCUUUGUUUCCACUCUGGCCCAAGUUUGAGUCUCCAUAUGGGCCCUUCCUGUCCUCAUGCCCUGCCUGUCUUCAUUCCACCCAUCCACCCUCCUAAGGAUUGGUCUUGUUCCGAGAGUGAUCCUGGUAACGCCAAGCCUCCCUCUGCCCCUGUGUUGGCUUCUGUGACGGACUACCACACACCAAGAGGUUUUUCACAGUGAAGAUGUAUGCUCUCACCAUCCUACCUCUUGCGGUCGCACUAGUGUGGAAUUCUCGGGUGUCAAGG
Data returned: 2.01 R (bound/input frequency ratio)

Data request: // query binding signal value for entry ENSMUSG00000061578.502|Ksr2|17:22;189:195 (ssRNA) RNA: GGGAGUUCUACAGUCCGACGAUCGCUUCGAUAUCCGCAUGCUAAGUGCUGGGAUUAAAGCACACAACCACCAUUGCAAUCUUGAACUCUUGACCAAUAGAAAUCCUAGACUAGUGUUGCUAGGCAACUGACUGUAUUCAGGACACCCAGGGUGGGAGGUGGAUGGAGCUCUUGCCUAACACACACCAAGCCCCAAGUUCCAUCCCCAGUCCCACACAAACCAGAUAUGAUGCACACACCCUAUGUCCCCCACACACGAGAGAGCUGGAGGCAGGAGGAUCAGAAGUUCAGGGCCAUCCUUAAUCUCUUGCGGUCGCACUAGUGUGGAAUUCUCGGGUGUCAAGG
Data returned: 3.46 R (bound/input frequency ratio)

Data request: // query binding signal value for entry ENSMUSG00000061578.835|Ksr2|29:33;71:75;146:150 (ssRNA) RNA: GGGAGUUCUACAGUCCGACGAUCGCUUCGAUAUCCGCAUGCUAAAGGGCUCAGUCCAUAGCUGCCUGACUCACACAUUCUAGGCCUUUCUUGAGGCAAGUGUUCAUCAUGAUACACACAGGGUGAGGAGGAGUUUCUUCAUGGCAAACAGGAAGCAAAGAGCAAUACAGGAAAAGGUCAGGGGUGAGAACACACAUUGCCACUUCCUCCAGCUAGGACCUUUGAGCAUCACAUUGUGAAGCCAUCCAGGGACUUGGGGGUUAGGUCAGAGGUAUCAAUACAUCUCCGGAAACAUCGUCACAGACUCUUGCGGUCGCACUAGUGUGGAAUUCUCGGGUGUCAAGG
Data returned: 0.305 R (bound/input frequency ratio)
